testSystem: 3-hydroxy-3-methylglutaryl-coenzyme A reductase (Homo sapiens)
Sequence (whole entry): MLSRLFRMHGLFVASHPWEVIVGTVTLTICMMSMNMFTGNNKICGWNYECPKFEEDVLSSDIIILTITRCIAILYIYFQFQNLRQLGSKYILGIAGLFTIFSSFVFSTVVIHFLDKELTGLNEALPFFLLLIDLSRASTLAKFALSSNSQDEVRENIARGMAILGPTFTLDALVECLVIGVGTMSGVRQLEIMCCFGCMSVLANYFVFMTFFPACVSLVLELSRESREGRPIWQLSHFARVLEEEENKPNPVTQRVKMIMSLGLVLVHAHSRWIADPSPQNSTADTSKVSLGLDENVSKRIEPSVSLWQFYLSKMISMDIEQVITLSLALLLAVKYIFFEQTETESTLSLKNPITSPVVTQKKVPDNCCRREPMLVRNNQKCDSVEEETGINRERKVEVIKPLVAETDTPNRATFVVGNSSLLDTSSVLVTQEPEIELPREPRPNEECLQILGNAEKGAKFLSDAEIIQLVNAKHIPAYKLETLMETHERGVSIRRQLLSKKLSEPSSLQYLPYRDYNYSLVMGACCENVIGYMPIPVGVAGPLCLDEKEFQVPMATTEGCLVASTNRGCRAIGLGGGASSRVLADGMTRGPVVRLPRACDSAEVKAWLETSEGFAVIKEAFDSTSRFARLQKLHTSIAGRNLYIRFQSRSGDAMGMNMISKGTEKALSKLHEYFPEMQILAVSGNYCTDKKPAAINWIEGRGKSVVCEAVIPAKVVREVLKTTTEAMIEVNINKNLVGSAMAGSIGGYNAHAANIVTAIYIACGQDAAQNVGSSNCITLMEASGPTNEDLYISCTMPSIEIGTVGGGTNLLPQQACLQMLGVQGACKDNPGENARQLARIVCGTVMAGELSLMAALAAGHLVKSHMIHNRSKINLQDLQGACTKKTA
assayComment: Relative inhibition of HMG-CoA reductase compared to Mevinolin.
readoutLabel: Relative potency

Use these answered entries as a reference point.
CC(C)c1nc(-c2ccc(F)cc2)nc(-c2ccc(F)cc2)c1/C=C/[C@@H]1C[C@@H](O)CC(=O)O1 : 2.78
Cc1cc(-c2ccc(F)cc2)c(/C=C/[C@@H]2C[C@@H](O)CC(=O)O2)c(C)n1 : 0.03
CC(C)c1nc(C2CCCCC2)nc(-c2ccc(F)cc2)c1/C=C/[C@@H]1C[C@@H](O)CC(=O)O1 : 1.92
CC(C)c1nc(-c2ccccc2)nc(-c2ccc(F)cc2)c1/C=C/[C@@H]1C[C@@H](O)CC(=O)O1 : 10
Cc1nc(-c2ccccc2)cc(-c2ccc(F)cc2)c1/C=C\[C@@H]1C[C@@H](O)CC(=O)O1 : 0.08
Cc1ccc(C)c(-c2cc(-c3ccc(F)cc3)c(/C=C/[C@@H]3C[C@@H](O)CC(=O)O3)c(C(C)C)n2)c1 : 2.5
CC(C)c1nc(C2CCCCC2)cc(-c2ccc(F)cc2)c1/C=C/[C@@H]1C[C@@H](O)CC(=O)O1 : 5.26

[a] CC(C)c1nc(-c2ccc(F)cc2)cc(-c2ccc(F)cc2)c1/C=C/[C@@H]1C[C@@H](O)CC(=O)O1
[b] CC(C)c1nc(-c2ccc(F)cc2)c(/C=C/[C@@H]2C[C@@H](O)CC(=O)O2)c(C(C)C)n1
Q: Of a and b , which one carries the higher reported Relative potency? Answer format: the label of the selected item.
Ans: b
(b: 10.4, a: 6.67)
